# Protocol text: water solubility compared to DMSO by HPLC
# Format: physicochemical
# Condition notes: 50 mg/ml, 1 hour stirring at room temperature, filtered, HPLC
# Procedure: Solutions are prepared in DMSO and in water for each of the molecules. All the samples are prepared at a final concentration of 50 mg/ml. After stirring for 1 hour at room temperature, the samples are filtered and a HPLC is performed. In order to calculate the percentage of solubility of each of the molecules, the area of the peak of the sample dissolved in water and in DMSO obtained by HPLC is determined. […]
Parameter: Percentage of water solubility compared to the samples dissolved in DMSO (%)
Field format: number, assumed %, no unit text.

CCN(CC)CC.O=C(/C=C/c1ccc(O)cc1)c1ccc(O)c(S(=O)(=O)O)c1 [V M = (C2H5)3N] = 100
O=C(CCc1ccc(O)c(S(=O)(=O)[O-])c1)c1ccc(O)c(S(=O)(=O)[O-])c1.[K+].[K+] [VI M = K] = 100
O=C(/C=C/c1ccc(O)c(S(=O)(=O)[O-])c1)c1ccc(O)c(S(=O)(=O)[O-])c1.[K+].[K+] [IV M = K] = 100

Q) Which Percentage of water solubility compared to the samples dissolved in DMSO value belongs to O=C(/C=C/c1ccc(O)cc1)c1ccc(O)c(S(=O)(=O)O)c1 [III] ?
A) 84

Q) Which Percentage of water solubility compared to the samples dissolved in DMSO value belongs to O=C(/C=C/c1ccc(O)cc1)c1ccc(O)c(S(=O)(=O)[O-])c1.[Na+] [V M = Na] ?
A) 100

Q) Which Percentage of water solubility compared to the samples dissolved in DMSO value belongs to O=C(/C=C/c1ccc(O)cc1)c1ccc(O)cc1 [Reference molecule, reference compound] ?
A) 0

Q) Which Percentage of water solubility compared to the samples dissolved in DMSO value belongs to O=C(/C=C/c1ccc(O)c(S(=O)(=O)O)c1)c1ccc(O)c(S(=O)(=O)O)c1 [II] ?
A) 81
